Target: T1, iASPP C-terminal domain (CTD) (UniProt Q8WUF5 625-828)
T1 construct: iASPP C-terminal domain (four ankyrin repeats and SH3 domain); The limits 625-828 are printed for the CTD in the crystallisation fusion; no separate limits are printed for the CTD used in ITC and NMR; For NMR the same construct was 15N-labelled (M9 medium); also called iASPP CTD; source: E. coli BL21(DE3) Rosetta, purified (IMAC, TEV cleavage, reverse IMAC, ion exchange, SEC); not shown: His10, …
T1 sequence (looked up): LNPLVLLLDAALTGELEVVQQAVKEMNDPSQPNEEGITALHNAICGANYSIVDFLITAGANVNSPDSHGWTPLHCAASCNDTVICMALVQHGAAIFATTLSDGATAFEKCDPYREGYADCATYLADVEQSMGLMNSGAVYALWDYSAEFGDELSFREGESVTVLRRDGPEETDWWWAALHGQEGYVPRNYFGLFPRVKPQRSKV
Assay: ITC; peptide titrated to the CTD or SH3 domain; VP-ITC; 25 mM HEPES pH 7.5, 150 mM NaCl, 500 µM TCEP; single-site binding model (AB hetero association)
Conditions: both partners purified
pKd: −log10 of the molar value.
MEASURED ATTRIBUTE: pKd

NPGGRPITPPRNSA (peptide, UniProt P62136 313-326, looked up, also called PP1α (313-326)) [PP1α peptide (amino acids 313-326)]: 6.73
